Kindly supply the reported self-cleavage values for the records listed here.
B1: LINE1-mini (parent)
chain: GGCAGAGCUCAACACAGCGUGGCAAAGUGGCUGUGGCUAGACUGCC

variants of: B1; assay: self-cleavage, relative activity (ratio to wild type); higher = more cleavage; in vitro, sequencing; the parent is a self-cleaving ribozyme
Numbers only.

Consider the reported self-cleavage for these variants:
mutantLabel	measurementLabel	reportedValue
A24C A39C	self-cleavage	1.1
G19U G27C	self-cleavage	0.75
G2A C15U	self-cleavage	0.5
A12C G19C	self-cleavage	0.02
A24C C46A	self-cleavage	0.32
G19C G33C	self-cleavage	0.12

Hey, quick one: what's self-cleavage for each of these?
1. A41G U43C
2. C15A A24G
3. G2A G5A
4. A16C G22C
5. C13A C37G
6. U38A G44U

Result ::
0.04
0.07
0.53
0.09
0.05
0.17

Hey, quick one: what's self-cleavage for each of these?
1. U28A C46G
2. G19C C42A
3. G36C C37U
4. G1U G33A
5. G5C A14U
6. G5U C13U

Result ::
[0.87, 0.14, 0.06, 0.04, 0.06, 0.11]

Hey, quick one: what's self-cleavage for each of these?
1. G21A C46U
2. G17A C42U
3. C3U U34A
4. G27C U34C

Result ::
1.39
0.1
0.06
0.08

Hey, quick one: what's self-cleavage for each of these?
1. A4U C45G
2. U32A
3. C8A
4. A6G G35U
5. U32C G44C
6. G33C A41G
7. A16G G19A

Result ::
1: 0.15; 2: 0.1; 3: 0.29; 4: 0.08; 5: 0.09; 6: 0.04; 7: 1.31

Hey, quick one: what's self-cleavage for each of these?
1. G21C G40A
2. C10U A16U
3. G7C U28C
4. A25G U38A

Result ::
0.04
0.19
0.1
0.46

Hey, quick one: what's self-cleavage for each of these?
1. G29C U34G
2. G1C U38C

Result ::
0.2
0.06

Hey, quick one: what's self-cleavage for each of these?
1. A26U G30C
2. G29C G30C
3. G1A C45U
4. A4G U34G

Result ::
[1.31, 0.23, 1.19, 0.08]

Hey, quick one: what's self-cleavage for each of these?
1. U9G U34A
2. G21A A25C
3. A6G G33A
4. U9A C37G
5. U28A G35C

Result ::
0.04
2.37
0.06
0.11
0.08

FYI, the data here is from the RNAGym collection of RNA variant scans (doi:10.7554/elife.90254).
